Provenance of the data: PubChem BioAssay (NCI)

What TGI was measured for each of the following?
- Tested on: NCI/ADR-RES ovarian
- PROTOCOL_SUMMARY: NCI tumour cell line growth inhibition, 48 h

SMILES_STRUCTURE | TGI
C=CC(C)(C)/C=C/c1ccc(O)cc1 | > 100 µM

// for each molecule below, give its TGI
1. [N-]=[N+]=Nc1nc2ccccc2c(N=[N+]=[N-])c1Cl
2. COC1=C(OC)C(=O)C(C/C=C(\C)CC/C=C(\C)CC/C=C(\C)CC/C=C(\C)CC/C=C(\C)CC/C=C(\C)CC/C=C(\C)CC/C=C(\C)CC/C=C(\C)CCC=C(C)C)=C(C)C1=O
3. O=c1cc(N2CCOCC2)n2c(ccc3ccccc32)n1
4. c1ccc2c[n+](CCCC[n+]3ccc4ccccc4c3)ccc2c1
5. CCN1CCN(c2cc(C(=O)Nc3cccc(Nc4ccc5c(OC)cccc5n4)c3)cc(C(F)(F)F)c2)CC1

A:
1. > 100 µM
2. > 100 µM
3. > 100 µM
4. > 100 µM
5. 6.69 µM

Record TGI for all entries; do not skip any.
1. Oc1cccc2c(Br)ccnc12
2. Cn1c2ccccc2n2c3ncccc3c(=O)cc12
3. COc1c(OC)c(OC)c2c(=O)cc(-c3ccc(OC(C)C)cc3)oc2c1OC
4. CN(C)C=N[C@@H](C(=O)O)c1ccccc1

A:
1. 12.7 µM
2. > 100 µM
3. 61.6 µM
4. > 100 µM

----------
- Tested on: SNB-19 CNS
- PROTOCOL_SUMMARY: NCI tumour cell line growth inhibition, 48 h
QUANTITY: TGI

Use these answered entries as a reference point.
COMPOUND | TGI
O=C(O)c1c2c(cc3c(=O)c4ccccc4[nH]c13)CCCC2 | > 100 µM
CC(CCc1nc2ccccc2s1)(c1ccc(O)cc1)c1ccc(O)cc1 | 34.8 µM
Cc1cc(Cl)cc2c1NC(=O)C2(O)CC(=O)c1ccc(Br)cc1 (stereo unspecified) | > 100 µM
COc1ccc2c(c1O)[C@@]13CCCC=C1[C@@H](C2)[N+](C)(C)CC3 | > 100 µM
O=c1cc(N2CCOCC2)n2c(ccc3ccccc32)n1 | > 100 µM

Record TGI for all entries; do not skip any.
1. O=c1[nH]cc(N=Cc2cc(Cl)ccc2O)c(=O)[nH]1
2. Cc1cc(=O)[nH]c(N/N=C/c2ccccc2O)n1
3. COc1cc(C2c3cc4c(cc3OC(O)C2C)OCO4)cc(OC)c1OC (stereo unspecified)
4. [N-]=[N+]=Nc1nc2ccccc2c(N=[N+]=[N-])c1Cl
5. O=S(=O)(/N=S(/Nc1ccccc1)C(F)(F)Cl)c1ccccc1 (stereo unspecified)

A:
1: > 100 µM; 2: > 100 µM; 3: > 100 µM; 4: > 100 µM; 5: > 100 µM

Q: Under SNB-19 CNS, report TGI for O=C1OCC2=C1C(c1cccc(C(F)(F)F)c1)c1cc3c(cc1N2CCO)OCCO3 (stereo unspecified)
A: > 33.3 µM

----------
- System: SF-539 CNS
- PROTOCOL_SUMMARY: NCI tumour cell line growth inhibition, 48 h
QUANTITY: log10(TGI) (log10 of the value in µM)
Values reflect log10 of reported TGI (µM).

Worked examples follow.
MOLECULE | READING
CN1CCN(Cc2ccc(NC(=O)c3[nH]ncc3Nc3ncnc4[nH]ccc34)cc2)CC1 | -0.37
COc1cc(OC)c2c(=O)cc(-c3ccccc3OCc3ccccc3)oc2c1OC | 1.60

// each listed molecule needs a value for log10(TGI)
1. CC12CCC(=O)C(O1)C1C(=O)c3ccc4c(ccc5ccccc54)c3C(=O)C12 (stereo not given)
2. CC(C)C[C@H](NC(=O)Cn1cccc(CNC(=O)c2ccccc2)c1=O)B(O)O
3. COc1ccc(C2NN=C3c4ccccc4CCC32)cc1 (stereo not given)

A:
1.66
-0.34
1.46
